# target-under-test: UniProt:Q9NR96
# Sequence (Q9NR96 26-1032): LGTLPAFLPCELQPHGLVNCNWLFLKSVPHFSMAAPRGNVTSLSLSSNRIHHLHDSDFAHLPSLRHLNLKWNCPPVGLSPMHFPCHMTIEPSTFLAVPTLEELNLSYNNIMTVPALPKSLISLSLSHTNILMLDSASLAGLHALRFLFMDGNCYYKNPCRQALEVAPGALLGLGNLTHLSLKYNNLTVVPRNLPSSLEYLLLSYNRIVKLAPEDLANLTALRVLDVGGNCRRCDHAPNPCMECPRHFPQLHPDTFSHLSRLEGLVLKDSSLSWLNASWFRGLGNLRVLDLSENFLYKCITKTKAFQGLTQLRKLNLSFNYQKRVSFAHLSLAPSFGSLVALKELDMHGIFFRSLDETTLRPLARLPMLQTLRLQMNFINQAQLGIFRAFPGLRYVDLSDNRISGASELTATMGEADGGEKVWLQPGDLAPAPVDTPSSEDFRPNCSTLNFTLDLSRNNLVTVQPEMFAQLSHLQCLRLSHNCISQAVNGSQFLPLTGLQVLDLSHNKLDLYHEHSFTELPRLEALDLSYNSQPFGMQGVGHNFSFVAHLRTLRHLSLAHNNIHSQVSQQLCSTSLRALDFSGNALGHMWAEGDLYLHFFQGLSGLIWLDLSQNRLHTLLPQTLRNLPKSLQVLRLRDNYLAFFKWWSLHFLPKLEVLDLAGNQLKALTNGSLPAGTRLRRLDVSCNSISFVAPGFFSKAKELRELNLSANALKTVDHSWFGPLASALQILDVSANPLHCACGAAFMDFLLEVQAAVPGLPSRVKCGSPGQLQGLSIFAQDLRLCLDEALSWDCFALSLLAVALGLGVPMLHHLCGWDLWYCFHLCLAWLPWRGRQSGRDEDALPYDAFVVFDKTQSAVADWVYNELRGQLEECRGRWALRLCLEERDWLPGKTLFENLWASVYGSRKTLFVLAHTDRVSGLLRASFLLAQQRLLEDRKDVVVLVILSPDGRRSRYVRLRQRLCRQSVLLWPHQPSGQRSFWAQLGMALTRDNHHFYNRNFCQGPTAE
# protocol-notes: TLR9 inhibition reporter assay (HEK-Blue cells, SEAP reporter, ODN2006 stimulation)
# details: HEK-Blue cells overexpressing human TLR9, SEAP reporter, ODN2006 5 nM
pIC50: −log10 of the molar value.
A collection of compounds and their measured pIC50
metric-name: pIC50

structure-notation	observed-measurement
CC(=O)N1CCC[C@H]1C(=O)N1CCC(c2ccc3[nH]c(-c4ccnc5[nH]ncc45)c(C(C)C)c3c2)CC1	< 4.30
CC(C)c1c(-c2ccc3cnnn3c2)[nH]c2ccc(C3CCN(C(=O)CN(C)C)CC3)cc12	6.00 to 7.00
Cc1nc2c(-c3[nH]c4ccc(C5CCN(CC(C)(C)O)CC5)cc4c3C(C)C)ccc(C)n2n1	4.30 to 6.00
CNC(=O)CN1CCC(c2ccc3[nH]c(-c4ccnc5[nH]ncc45)c(CC(F)F)c3c2)CC1	4.30 to 6.00
CC(C)c1c(-c2ccc3[nH]ncc3c2)[nH]c2ccc(C3CCNCC3)cc12	4.30 to 6.00
COc1cc(-c2[nH]c3ccc(C4CCNCC4)cc3c2C(C)C)cc2ncnn12	4.30 to 6.00
CCc1c(-c2cnc3cnccn23)[nH]c2ccc(C3CCNCC3)cc12	6.00 to 7.00
Cc1cc(-c2[nH]c3ccc(C4CCN(C(=O)[C@@H]5C[C@@H](O)CN5)CC4)cc3c2C(C)C)cc2ncnn12	4.30 to 6.00

====

# target-under-test: human TLR8 (Homo sapiens, UniProt Q9NR97)
# Sequence (Q9NR97 27-1041): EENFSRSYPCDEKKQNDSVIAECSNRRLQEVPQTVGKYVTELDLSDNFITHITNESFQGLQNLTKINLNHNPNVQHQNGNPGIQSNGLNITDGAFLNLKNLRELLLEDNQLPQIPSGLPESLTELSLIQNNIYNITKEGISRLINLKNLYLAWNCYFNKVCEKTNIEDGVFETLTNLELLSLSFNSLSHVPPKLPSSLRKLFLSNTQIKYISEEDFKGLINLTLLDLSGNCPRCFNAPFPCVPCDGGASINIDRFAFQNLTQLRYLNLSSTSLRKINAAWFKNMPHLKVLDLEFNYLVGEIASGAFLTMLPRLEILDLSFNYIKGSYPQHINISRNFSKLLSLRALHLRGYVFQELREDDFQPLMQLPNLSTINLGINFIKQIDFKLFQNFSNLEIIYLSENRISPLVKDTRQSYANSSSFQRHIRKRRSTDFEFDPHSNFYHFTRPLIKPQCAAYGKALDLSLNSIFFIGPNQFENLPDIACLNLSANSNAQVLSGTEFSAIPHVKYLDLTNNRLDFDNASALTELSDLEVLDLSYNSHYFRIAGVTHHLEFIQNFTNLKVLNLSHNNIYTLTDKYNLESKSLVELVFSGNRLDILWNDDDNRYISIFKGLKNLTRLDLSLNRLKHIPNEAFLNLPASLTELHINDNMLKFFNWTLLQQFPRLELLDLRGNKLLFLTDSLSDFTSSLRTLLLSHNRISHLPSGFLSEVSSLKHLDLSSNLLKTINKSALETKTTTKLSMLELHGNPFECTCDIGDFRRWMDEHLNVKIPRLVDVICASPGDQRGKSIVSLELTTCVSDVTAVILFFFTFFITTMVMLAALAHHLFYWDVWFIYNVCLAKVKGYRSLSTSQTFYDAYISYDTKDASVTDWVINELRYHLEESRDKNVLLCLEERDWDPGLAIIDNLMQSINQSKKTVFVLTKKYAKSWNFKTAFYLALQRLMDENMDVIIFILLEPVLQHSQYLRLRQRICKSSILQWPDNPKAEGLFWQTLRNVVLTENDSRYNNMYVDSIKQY
# protocol-notes: TLR8 inhibition reporter assay (HEK-Blue cells, SEAP reporter, R848 stimulation)
# details: HEK-Blue cells overexpressing human TLR8, SEAP reporter, R848 15.9 μM
pIC50: −log10 of the molar value.
A collection of compounds and their measured pIC50

compound	pIC50
CC(C)c1c(-c2ccnc3[nH]ncc23)[nH]c2ccc(C3CCN(CC(C)(C)CN(C)C)CC3)cc12 [Example 847]	> 7.00
CC(C)c1c(-c2cc(C(F)(F)F)c3nccn3c2)[nH]c2ccc(C3CCNCC3)cc12 [Example 136]	> 7.00
CC(C)c1c(-c2ccnc3[nH]ncc23)[nH]c2ccc(C3CCN(Cc4csc(N)n4)CC3)cc12 [Example 925]	> 7.00
CN(C)CC(=O)N1CCC(c2ccc3[nH]c(-c4ccnc5[nH]ncc45)c(CC(F)F)c3c2)CC1 [Example 517]	> 7.00
Cc1nc2cc(-c3[nH]c4ccc(C5CCN(C(=O)C[C@H](C)O)CC5)cc4c3C(C)C)ccn2n1 [Example 602]	< 5.51
COc1cc(-c2[nH]c3ccc(C4CCN(C5COC5)CC4)cc3c2C(C)C)cc2nccn12 [Example 712]	6.00 to 7.00
CC(C)c1c(-c2ccnc3[nH]ncc23)[nH]c2ccc(C3CCN(C(=O)CNCCCN(C)C)CC3)cc12 [Example 575]	> 7.00
Cc1cn2cc(-c3[nH]c4ccc(C5CCN(C(=O)CN(C)C)CC5)cc4c3C(C)C)cc(C(F)(F)F)c2n1 [Example 511]	6.00 to 7.00
CNCC(=O)N1CCC(c2ccc3[nH]c(-c4cc(F)c5nccn5c4)c(CC(F)F)c3c2)CC1 [Example 545]	4.30 to 6.00
Cc1cc(-c2[nH]c3ccc(C4CCN(Cc5ccn(C)n5)CC4)cc3c2C(C)C)cn2nncc12 [Example 882]	6.00 to 7.00
Cc1nc2cc(-c3[nH]c4ccc(C5CCNCC5)cc4c3C(C)C)ccn2n1 [Example 156]	6.00 to 7.00
Cc1cc(-c2[nH]c3ccc(C4CCN(Cc5ccn(C)n5)CC4)cc3c2C(C)C)cc2cnnn12 [Example 891]	> 7.00
Cc1cc2nc(-c3[nH]c4ccc(C5CCNCC5)cc4c3C(C)C)c(F)cn2n1 [Example 148]	6.00 to 7.00
Cc1c(-c2[nH]c3ccc(C4CCN(CC(=O)N(C)C)CC4)cc3c2C(C)C)cn2nnnc2c1C [Example 309]	> 7.00
CNCCN1CCC(c2ccc3[nH]c(-c4cnc5ccccc5c4)c(C)c3c2)CC1 [Example 664]	< 5.51
CC(C)c1c(-c2ccc3[nH]nc(N)c3c2)[nH]c2ccc(C3CCNCC3)cc12 [Example 93]	> 7.00

====

# target-under-test: human TLR8 (Homo sapiens)
# protocol-notes: TLR8 inhibition reporter assay (HEK-Blue cells, SEAP reporter, R848 stimulation)
# details: HEK-Blue cells overexpressing human TLR8, SEAP reporter, R848 15.9 μM
A collection of molecules and their measured IC50
metric-name: IC50

molecule	observed-measurement
CNC(=O)CN1CCC(c2ccc3[nH]c(-c4cn5nnnc5cc4C)c(C(C)C)c3c2)CC1	100 to 1000 nM
COc1cc(-c2[nH]c3ccc(C4CCN(CCS(C)(=O)=O)CC4)cc3c2C(C)C)cc2ncnn12	< 100 nM
Cc1c(-c2[nH]c3ccc(C4CCNCC4)cc3c2C(C)C)ccc2nnnn12	< 100 nM
CC(C)c1c(-c2ccnc3[nH]ncc23)[nH]c2ccc(C3CCN(C(=O)C4CCNCC4)CC3)cc12	100 to 1000 nM
Cc1cc(-c2[nH]c3ccc(C4CCN(CC(=O)N(C)C)CC4)cc3c2C(C)C)cn2ccnc12	< 100 nM
CNC(=O)CN1CCC(c2ccc3[nH]c(-c4cc(OC)n5nc(C)nc5c4)c(C(C)C)c3c2)CC1	< 100 nM
CC(C)c1c(-c2cn(C)c3ncccc23)[nH]c2ccc(C3CCN(CC(=O)N(C)C)CC3)cc12	< 100 nM
COc1cc(-c2[nH]c3ccc(C4CCNCC4)cc3c2C(C)C)nn2ncnc12	< 100 nM
CC(C)c1c(-c2cn(C)c3ncccc23)[nH]c2ccc(C3CCN(C4CCOCC4)CC3)cc12	< 100 nM
Cc1nc2cc(-c3[nH]c4ccc(C5CCN(C6COC6)CC5)cc4c3C(C)C)ccn2n1	1000 to 50000 nM
CNCC(=O)N1CCC(c2ccc3[nH]c(-c4cn5ccnc5c(C)c4C)c(C(C)C)c3c2)CC1	100 to 1000 nM
Cc1cc2nc(-c3[nH]c4ccc(C5CCN(CC(=O)N(C)C)CC5)cc4c3C(C)C)c(F)cn2n1	100 to 1000 nM
Cc1c(-c2[nH]c3ccc(C4CCN(CC(=O)N(C)C)CC4)cc3c2C(C)C)ccc2c1cnn2C	< 100 nM
Cc1cc(-c2[nH]c3ccc(C4CCN(CC#N)CC4)cc3c2C(C)C)cn2nnnc12	< 100 nM
Cc1cn2cc(-c3[nH]c4ccc(C5CCNCC5)cc4c3C(C)C)cnc2n1	1000 to 50000 nM
Cc1nc[nH]c1CN1CCC(c2ccc3[nH]c(-c4ccnc5[nH]cnc45)c(C(C)C)c3c2)CC1	< 100 nM
CC(C)c1c(-c2ccnc3[nH]ncc23)[nH]c2cc(F)c(C3CCN(CC4CCN(C(C)C)CC4)CC3)cc12	< 100 nM
Cc1nc2cc(-c3[nH]c4ccc(C5CCN(CC(C)(C)O)CC5)cc4c3C(C)C)ccn2n1	100 to 1000 nM
CCc1c(-c2cc3ccccc3o2)[nH]c2ccc(C3CCNCC3)cc12	1000 to 50000 nM
CCc1c(-c2ccnc3[nH]cc(C)c23)[nH]c2ccc(C3CCNCC3)cc12	100 to 1000 nM
CC(C)c1c(-c2cnc3nn(C)cc3c2)[nH]c2ccc(C3CCN(CC(C)(C)O)CC3)cc12	1000 to 50000 nM
Cc1c(-c2ccnn3ccnc23)[nH]c2ccc(C3CCN(C4CCN(C(C)C)CC4)CC3)cc12	1000 to 50000 nM
CC(C)c1c(-c2ccnc3[nH]ncc23)[nH]c2ccc(C3CCN(Cc4cnc(N)s4)CC3)cc12	< 100 nM
Cc1c(-c2[nH]c3ccc(C4CCN(CC(C)(C)O)CC4)cc3c2C(C)C)ccc2c1cnn2C	< 100 nM
COc1cc2[nH]c(-c3ccnc4[nH]ncc34)c(C(C)C)c2cc1C1CCNCC1	100 to 1000 nM
Cc1cc(-c2[nH]c3ccc(C4CCN(C(=O)CCN5CCC6CC65)CC4)cc3c2C(C)C)cn2nnnc12 (stereo not shown)	< 100 nM
Cc1cc(-c2[nH]c3ccc(C4CCN(S(=O)(=O)CCO)CC4)cc3c2C(C)C)cn2nnnc12	100 to 1000 nM
Cc1cc(-c2[nH]c3ccc(C4CCN(C5COC5)CC4)cc3c2C(C)C)cc2ccnn12	< 100 nM
Cc1cc(-c2[nH]c3ccc(C4CCN(C(=O)CCN(C)C)CC4)cc3c2C(C)C)cn2nnnc12	< 100 nM
Cc1nc2cc(-c3[nH]c4ccc(C5CCN(C(=O)[C@@H]6C[C@@H](O)CN6)CC5)cc4c3C(C)C)ccn2n1	1000 to 50000 nM
CCc1c(-c2ccc3ncc(C)n3n2)[nH]c2ccc(C3CCNCC3)cc12	100 to 1000 nM

====

# target-under-test: human TLR8 (Homo sapiens)
# protocol-notes: TLR8 inhibition reporter assay (HEK-Blue cells, SEAP reporter, R848 stimulation)
# details: HEK-Blue cells overexpressing human TLR8, SEAP reporter, R848 15.9 μM
pIC50: −log10 of the molar value.

structure-notation	pIC50
Cc1cc(-c2[nH]c3ccc(C4CCNCC4)cc3c2C(C)C)cn2cc(C(=O)NCC(C)(C)O)nc12	6.00 to 7.00
Cc1cc(-c2[nH]c3ccc(C4CCN(CC(=O)N(C)C)CC4)cc3c2C(C)C)cc2cccnc12	> 7.00
Cc1cc2ncnn2nc1-c1[nH]c2ccc(C3CCN(C4CCOCC4)CC3)cc2c1C(C)C	> 7.00
CCN(C)CCC(=O)N1CCC(c2ccc3[nH]c(-c4cc(C)c5nnnn5c4)c(C(C)C)c3c2)CC1	> 7.00
